What Stability % (PT remaining in the liposomes) was measured for each of the following?
Experiment: Stability of L-PT in 0.9% saline at 4° C. for 14 days
Type: physicochemical
Details: 0.9% saline, 4° C., DMPC:DMPG 7:3
Express it in %; write the number only.

Query block: Recorded Stability % (PT remaining in the liposomes) for O=C([O][Pt]1([O]C(=O)C2=CCCC2)[NH]C2CCCCC2[NH]1)C1=CCCC1 (mixture of isomers) [Pt-cyclopentenecarboxylato racemic-DACH mixture] , please?
Result block: 89

Query block: Recorded Stability % (PT remaining in the liposomes) for CCCCCCCCCCN1CC(=O)[O][Pt]2([NH]C3CCCCC3[NH]2)[O]C(=O)C1 (mixture of isomers) [Pt-N-decyliminodiaceto-racemic-DACH mixture] , please?
Result block: 100

Query block: Recorded Stability % (PT remaining in the liposomes) for O=C([O][Pt]1([O]C(=O)C2=CCCC2)[NH][C@@H]2CCCC[C@H]2[NH]1)C1=CCCC1 [Pt-cyclopentenecarboxylato trans-RR-DACH] , please?
Result block: 94

Query block: Recorded Stability % (PT remaining in the liposomes) for CCCCCCCCCCN1CC(=O)[O][Pt]2([NH][C@@H]3CCCC[C@H]3[NH]2)[O]C(=O)C1 [Pt-N-decyliminodiacetato-trans-RR-DACH] , please?
Result block: 100
